PROTOCOL DETAILS: Plasma levels of lasofoxifene after a single oral dose in healthy postmenopausal women (LC-MS-MS)
Assay type: in vivo, human
CONDITIONS: female, human, plasma; single oral 10 mg dose, healthy post menopausal women, 24 hours after dosing; read-out: Mean plasma concentration, na Lasofoxifene per ml plasma
ENDPOINT: concentration at 24 h (ng/mL)
Give bare numbers, in ng/mL.

Q: Identify concentration at 24 h associated with the compound Oc1ccc2c(c1)CC[C@H](c1ccccc1)[C@@H]2c1ccc(OCCN2CCCC2)cc1 [lasofoxifene]
Result: 8.35

Source: patent US6436977B1
